RUN_DESCRIPTION: Cmax in CD-1 mouse at 30 mg/kg, po by LC-MS/MS analysis
Assay type: ADME, organism-based
MEASUREMENT_SETUP: in vivo
ENDPOINT_LABEL: Cmax (ng/mL)

a = C=CC(=O)N1[C@@H]2CC[C@H]1C[C@@H](n1nc(-c3cc(F)c(Oc4ccc5c(c4)ncn5C)c(Cl)c3)c3c(C)ncnc31)C2
b = C=CC(=O)N1[C@@H]2CC[C@H]1C[C@@H](n1nc(-c3ccc(Oc4ccc5c(c4)ncn5C)c(C)c3)c3c(C)ncnc31)C2
Asked: When their Cmax values are compared, which is larger, a or b ? Provide the label of your selected option as the answer.
Given back: a
(a: 9600 ng/mL, b: 5300 ng/mL)
